Biological target: CYP3A4 (Homo sapiens (Human))
Sequence (P08684 whole entry): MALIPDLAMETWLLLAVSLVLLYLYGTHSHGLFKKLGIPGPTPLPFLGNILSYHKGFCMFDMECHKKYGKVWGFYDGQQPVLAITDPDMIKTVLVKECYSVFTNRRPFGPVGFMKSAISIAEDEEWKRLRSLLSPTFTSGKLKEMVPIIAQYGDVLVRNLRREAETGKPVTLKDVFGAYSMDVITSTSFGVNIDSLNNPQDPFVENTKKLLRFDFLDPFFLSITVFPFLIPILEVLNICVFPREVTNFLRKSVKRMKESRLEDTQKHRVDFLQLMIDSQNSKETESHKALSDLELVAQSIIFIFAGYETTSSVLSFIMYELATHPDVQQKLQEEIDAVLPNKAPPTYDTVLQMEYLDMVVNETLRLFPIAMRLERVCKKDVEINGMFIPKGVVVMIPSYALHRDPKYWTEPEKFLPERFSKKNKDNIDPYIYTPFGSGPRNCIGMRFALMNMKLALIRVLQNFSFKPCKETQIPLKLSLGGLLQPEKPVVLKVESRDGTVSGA
Experiment: CYP450 inhibition in human liver microsomes: CYP3A4;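 note: incubation at 37 °C started by adding 1 mM NADPH, with formation of the probe metabolite measured via LC-MS/MS or fluorescent detection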
Conditions: read-out: CYP3A4 IC50 Testosterone; probe substrate testosterone
measured.endpoint: IC50

molecule	IC50
COCCOCCOCCOCCOCCOCCOCCOC(=O)NC(C(=O)NC(Cc1ccccc1)C(O)CN(Cc1ccc(-c2ccccn2)cc1)NC(=O)C(NC(=O)OC)C(C)(C)C)C(C)(C)C (stereo not drawn)	> 25 µM

Provide one value: measured IC50 of COCCOCCOCCOCCOCCOCCOCCOC(=O)N[C@@H](C(=O)NC(Cc1ccccc1)[C@@H](O)CN(Cc1ccc(-c2ccccn2)cc1)NC(=O)[C@H](NC(=O)OCCOCCOCCOCCOCCOCCOCCOC)C(C)(C)C)C(C)(C)C (stereo partly drawn)
> 50 µM

Provide one value: measured IC50 of CCCC1(CCc2ccccc2)CC(O)=C(C(CC)c2cccc(N(CCOCCOCCOC)S(=O)(=O)c3ccc(C(F)(F)F)cn3)c2)C(=O)O1 (stereo not drawn) [mPEG3-amide-Tipranavir]
~2.1 µM
